Origin of values: patent US20190382504A1

target: biotinylated recombinant ESO157/HLA-A*02:02 complex (human); assay: BLI (Octet QK), biotinylated pMHC on streptavidin sensor, BsAb 10 ug/mL
property: pKd
In simple prose, pKd is minus the logarithm base ten of a concentration in moles per litre.

Query string: Sample ESO157 BsAb #116 (anti-ESO157/HLA-A*02:01 scFv x anti-human CD3epsilon scFv, single chain) (bispecific antibody) QSVLTQPPSVSAAPGQKVTISCSGSSSNIGNNYVSWYQQLPGTAPKLLIYDNNKRPSGIPDRFSGSKSGTSATLGITGLQTGDEADYYCGTWDSSLSAEVFGTGTKVTVLGSRGGGGSGGGGSGGGGSLEMAQVQLVQSGPEVKKPGASMKVSCKASGYTFTKYGISWVRQAPGQGLEWMGWISADSGKTSYAQNLQGRVSLTIDTSTATAYMELRSLRSDDTAVYYCARDDDSWGQGTLVTVSS — what was its pKd?
Result string: 8.74

Query string: Sample ESO157 BsAb #76 (anti-ESO157/HLA-A*02:01 scFv x anti-human CD3epsilon scFv, single chain) (bispecific antibody) QSVVTQPPSLSGAPGQRVTISCNGSGSNIGAGYDVHWYQQLPGTAPKLLIYGNSNRPSGVPDRFSGSKSGTSASLAITGLQAEDEADYYCQSYDSSLSGWGIFGGGTKLTVLGSRGGGGSGGGGSGGGGSLEMAEVQLVQSGAEVKKPGSSVKVSCKASGGTFSSYAISWVRQAPGQGLEWMGGIIPIFGTANYAQKFQGRVTITADESTSTAYMELSSLRSEDTAVYYCARYDSYVYDEWGQGTLVTVSS — what was its pKd?
Result string: 7.47

Query string: Sample ESO157 BsAb #52 (anti-ESO157/HLA-A*02:01 scFv x anti-human CD3epsilon scFv, single chain) (bispecific antibody) QSVLTQPPSVSGAPGQRVTISCTGSSSNIGAGYDVHWYQQLPGTAPKLLIYGDTNRPSGVPDRISGSKSGTSASLAITGLQAEDEADYYCQSYDSNLYTYVFGTGTKVTVLGSRGGGGSGGGGSGGGGSLEMAQVQLVQSGAEVKKPGASVKVSCKASGYTFTSYGISWVRQAPGQGLEWMGWISAYNGNTNYAQKLQGRVTMTTDTSTSTAYMELRSLRSDDTAVYYCARYSGYYAGDSWGQGTLVTVSS — what was its pKd?
Result string: 7.20

Query string: Sample ESO157 BsAb #66 (anti-ESO157/HLA-A*02:01 scFv x anti-human CD3epsilon scFv, single chain) (bispecific antibody) QSVLTQPPSVSGAPGQRVTISCTGSSSNIGAGYDVHWYQQLPGTAPKLLIYGNSNRPSGVPDRFSGSKSGTSASLAITGLQAEDEADYYCQSYDSSLSGSWVFGGGTKLTVLGSRGGGGSGGGGSGGGGSLEMAEVQLVESGAEVKRPGASVKVSCKASGYTFTSYGISWVRQAPGQGLEWMGRFIPNLNKGNSAHKFEGRVSFTADKFTNTAYMELRGLKSDDTAVYYCARGDYGSDQWGQGTLVTVSS — what was its pKd?
Result string: 7.60
